assay: physchem; type: physicochemical; conditions: 40 °C, organic solvent or mixture, thermodynamic from solid
endpoint-name: solubility

Exam item: # query: solubility of entry O=C1CCC(N2Cc3cc(CNC(=O)C(F)(F)c4ccc(Cl)cc4)ccc3C2=O)C(=O)N1 (stereo not shown)
Marked response: > 250 mg/mL

====

assay: physchem; assay type: physicochemical; conditions: 60 °C, organic solvent or mixture, thermodynamic from solid
endpoint-name: solubility

Exam item: # query: solubility of entry O=C1CCC(N2Cc3cc(CNC(=O)C(F)(F)c4ccc(Cl)cc4)ccc3C2=O)C(=O)N1 (stereo not shown) [Compound 1]
Marked response: > 250 mg/mL

src = patent US20200206212A1
